Attribution: PubChem BioAssay (NCI)

Each item that follows carries a reported growth inhibition.
TEST_NAME: NCI Yeast Anticancer Drug Screen. Data for the mec2-1 strain (AID 157)
TEST_CONDITIONS: S. cerevisiae mec2-1 strain, at 50.0 µM (retest, dose inferred, filed as 5.0), hits give high values
This is part of a sample that, as a whole, favours compounds with a hit. Of some 79,000 tested, about 15% had one in any assay.

COMPOUND	growth inhibition [%]
O=c1s[se]c2ccccc12	99
COC1CCC(OC2CC(C3(C)CCC4(CC(O)C(C)C(C(C)/C=C(\C)C(=O)C(C)CC(C)C(=O)O)O4)O3)OC3(OC(C4OC(O)(CO)C(C)CC4C)CC3C)C2C)OC1C (stereo not drawn)	83
CC(=O)C(CN(C)Cc1ccccc1)C(c1ccccc1)c1c(O)c2ccccc2oc1=O (stereo not drawn)	1
CC1(C)CC2(c3ccccc3)CC(c3ccccc3)C1C(C(=O)O)C2C(=O)O (stereo not drawn)	99
CCOC(=O)C1=C(C)/C(=C/c2[n-]c(C)c(C(=O)OCC)c2C)N=C1C.CCOC(=O)C1=C(C)/C(=C/c2[n-]c(C)c(C(=O)OCC)c2C)N=C1C.[Zn+2]	47
S=c1[nH]c2ccccc2s1.[Pb]	6
COc1cc([N+](=O)[O-])c2ncccc2c1[N+](=O)[O-]	13
C[CH2][Sn]([CH2]C)([CH2]C)[CH2]C	22
CC1(C(=O)O)CCCC2(C)c3cc(O)ccc3CCC12 (stereo not drawn)	86
Cc1cc(N(CCCl)CCCl)ccc1CN1CCCN(Cc2ccc(N(CCCl)CCCl)cc2C)C1c1ccc(N(CCCl)CCCl)cc1	99
COc1cc(OC)c(/C=C(\C)[N+](=O)[O-])cc1Br	3
CCC[CH2][Sn]([CH2]CCC)([CH2]CCC)[O]C(=O)C(OC)c1ccccc1 (stereo not drawn)	100
COc1cc(/C=C/c2ccc(OC)c(O)c2)cc(OC)c1	98
CCC1(O)C(=O)OCc2c1cc1n(c2=O)Cc2cc3cc(C)ccc3nc2-1 (stereo not drawn)	64
C[C@]12CC[C@H](O)C[C@@H]1CC[C@@H]1[C@@H]2CC[C@]2(C)C(=O)/C(=C/O)C[C@@H]12	68
O=c1oc2ccccc2c(O)c1C(C/C(CCN1CCCC1)=N/O)c1ccccc1 (stereo not drawn)	22
C[C@@H]1C[C@H]2CC[C@H](O2)[C@H](C)C(=O)O[C@@H](C)C[C@@H]2CC[C@@H](O2)[C@@H](C)C(=O)O[C@H](C)C[C@H]2CC[C@H](O2)[C@H](C)C(=O)O[C@@H](C)C[C@@H]2CC[C@@H](O2)[C@@H](C)C(=O)O1	97
CCC[CH2][Sn]1([CH2]CCC)[O]CC(Cc2ccccc2)[O]1 (stereo not drawn)	98

====

TEST_NAME: NCI Yeast Anticancer Drug Screen. Data for the sgs1 mgt1 strain (AID 161);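 note: 0% = growth of cultures given vehicle only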
TEST_CONDITIONS: S. cerevisiae sgs1 mgt1 strain, at 50.0 µM (retest, dose inferred, filed as 5.0)
This is part of a sample that, as a whole, favours compounds with a hit. Of some 79,000 tested, about 15% had one in any assay. Calls of active or inactive are those of the source. Cut-off read from the data, not from the text of the source: active = growth inhibition above about 70%; inactive = the rest.
Outcome codes: active, inactive

MOLECULE	CATEGORY
COc1ccc2c(ccc3oc([N+](=O)[O-])cc32)c1	active
CC(C)CC(C)(c1ccc(O)cc1)c1ccc(O)cc1	active
CC(=O)[O-].O=C([CH-]C(=O)c1ccccc1)c1ccccc1.O=C([CH-]C(=O)c1ccccc1)c1ccccc1.[Y+3]	inactive
[Pt].c1ccc([PH+](c2ccccc2)c2ccccc2)cc1.c1ccc([PH+](c2ccccc2)c2ccccc2)cc1.c1ccc([PH+](c2ccccc2)c2ccccc2)cc1.c1ccc([PH+](c2ccccc2)c2ccccc2)cc1	active
[C-]#[O+].[C-]#[O+].[Mo].[N-]=Nc1ccc([N+](=O)[O-])cc1.[c-]1[c-][c-][cH-][c-]1	active
N#CC1CC[CH-]CC1.[Cl-].[Cl-].[Cl-].[Cl-].[Cl-].[Sb+5].c1ccncc1	active
C=NCC#N	inactive
CN(C)c1ccc(/C=C/c2cc3scc(-c4ccccc4)[n+]3c3ccccc23)cc1	active
O=c1cccc(C2CC(CO)C3CCCCN3C2)[nH]1 (centres undefined)	inactive

====

TEST_NAME: NCI Yeast Anticancer Drug Screen. Data for the mlh1 rad18 strain (AID 175)
TEST_CONDITIONS: S. cerevisiae mlh1 rad18 strain growth inhibition; at 5.0 µM (retest, dose inferred, filed as 0.5); hits give high values
Description: Growth inhibition of yeast strains with defined genetic alterations is measured as a screen for potential anti-cancer activity. Selected strains with alterations in DNA damage repair or cell cycle control were exposed to compounds and growth inhibition was measured relative to vehicle treated controls. The strain used in this assay is mlh1 rad18
The panel holds about 79,000 compounds, 15% with a hit somewhere; the sample as a whole holds those more often.
PROPERTY: growth inhibition (%)

MOLECULE	ENDPOINT_VALUE
C[CH2][Sn]([CH2]C)[O][Sn]([Cl])([CH2]C)[CH2]C	75
C[CH2][Sn]([Cl])([CH2]C)[CH2]C	2
C/C(=N\NC(N)=O)C(CN1CCCCC1)C(c1ccccc1)c1c(O)c2ccccc2oc1=O (configuration not stated)	17
CC(=O)Nc1ccccc1[As](OC(C)=O)c1ccccc1 (configuration not stated)	29
CCC(C)c1cnc(CC(C)C)c(=O)n1O (configuration not stated)	73
O=[C-]c1ccccc1[C-]=O.[Pd+2].c1ccc([PH+](c2ccccc2)c2ccccc2)cc1.c1ccc([PH+](c2ccccc2)c2ccccc2)cc1	14
CC(c1ccccc1)N1O[C@]12CC[C@@]1(C)C(CCCC13OCCO3)C2 (some centres not stated)	93
COC1CCCC2OC3(OC)C(OC)CCCC3OC12OC (configuration not stated)	-1
O=C([CH-]C(=O)c1ccccc1)c1ccccc1.O=C([CH-]C(=O)c1ccccc1)c1ccccc1.[CH2-]CCC.[CH2-]CCC.[Sn+4]	92
CC(=O)c1cc(CN(CCCl)CCCl)c(O)c(CN(CCCl)CCCl)c1O	-4
O=C1CC2CCCC(C1)N2Cc1ccccc1	7
COc1ccccc1C(Cc1ccc(N2C(N)=NC(N)=NC2(C)C)cc1)C(=O)Nc1ccc(S(=O)(=O)F)cc1 (configuration not stated)	2
CC(=O)Oc1ccc(/C=C/[N+](=O)[O-])cc1	12
S=C=NC/C(Cl)=C/Cl	38
CN1CCOC12CCC1(C)C(CCC3C4CCC(O)C4(C)CCC31)C2 (configuration not stated)	-12
CCN(CC)C(=S)[S-].CCN(CC)C(=S)[S-].O=C(O)CC([S-])C(=O)O.[Fe+3] (configuration not stated)	38
COCC(C#N)NC1CC(OC2CC(O)(C(=O)CO)Cc3c(O)c4c(c(O)c32)C(=O)c2c(OC)cccc2C4=O)OC(C)C1O (configuration not stated)	44
O=C1C=CC(=O)C(Br)C1Br (configuration not stated)	35
O=[N+]([O-])/C=C/c1cccc(F)c1	59
O=C1OCC2CC3C4C=CC(C4)C3C12 (configuration not stated)	77
CC(C)c1ccc(C(C)C)c(C(=O)CN2CCOCC2)c1	5
S=C=NCCc1ccccc1	-20
Cl[C](Cl)(Cl)[Hg][C](Cl)(Cl)Cl	78
C[AsH](C)CC[AsH](C)C.C[AsH](C)CC[AsH](C)C.C[AsH](C)CC[AsH](C)C.[Ni]	56
CC(=O)Nc1c2sscc-2n(C)c1=O	99
Sc1nc2ccccc2s1.Sc1nc2ccccc2s1.Sc1nc2ccccc2s1.Sc1nc2ccccc2s1.[Cl][Rh][Cl]	43
Cc1cc(C)c(C[N+](C)(C)C)c(C)c1C	88
O=c1[nH]c2ccccc2n1C1CCN(CCCC(c2ccc(F)cc2)c2ccc(F)cc2)CC1	14
O=C1N[C@H]2[C@H](O)[C@H](O)[C@@H](O)[C@H](O)[C@@H]2c2cc3c(c(O)c21)OCO3	26
CC(C)(C)OOC(=O)/C=C\C(=O)OOC(C)(C)C	1
CC(C)c1cc([N+](=O)[O-])cc([N+](=O)[O-])c1O	6
N=C(N)c1ccc(NN=Nc2cccc3c2Oc2ccccc2O3)cc1	17
CN(C)N(P(N)(Cl)(c1ccccc1)c1ccccc1)P(N)(Cl)(c1ccccc1)c1ccccc1	25
O=[N+]([O-])c1cccc([N+](=O)[O-])c1Cl	7
O=C([CH-]C(=O)c1ccccc1)c1ccccc1.O=C([CH-]C(=O)c1ccccc1)c1ccccc1.O=C([CH-]C(=O)c1ccccc1)c1ccccc1.[Nd+3].[OH3+]	60
[O-][n+]1ccccc1S	99
CNP(=O)(Oc1cc(Cl)c(Cl)cc1Cl)N1CCN(c2ccccc2)CC1 (configuration not stated)	-5
O=c1oc2cc(O)ccc2c(O)c1C(c1ccc(/C=C/c2ccccc2)cc1)c1c(O)c2ccc(O)cc2oc1=O	8
CC[PH+](CC)CC[S-].CC[PH+](CC)CC[S-].[Au+].[Au+]	55
CC1c2c(n(C)c3ccccc23)C2CCC3(CO3)C1N2Cc1ccccc1 (configuration not stated)	35
CO/C1=C\C(C)=C\C(C)C(O)C(C)C/C(C)=C/C=C/C(OC)C(C(C)C(O)C(C)C2(O)CC(O)C(C)C(C(C)C)O2)OC1=O (configuration not stated)	0
COc1cc(C(=O)[O][Hg][CH2]C2CC(O)CC([CH2][Hg][O]C(=O)c3cc(OC)c(OC)c(OC)c3)O2)cc(OC)c1OC (configuration not stated)	99
